# test details: Solubility in water
# Type: physicochemical

[
  {
    "molecule": "CCCCC(O)c1cc2cc(C)c(C(=O)[O-])cc2n1CCc1ccccc1.[Na+] (stereo unspecified)",
    "solubility": "> 30 mM"
  }
]
